experiment_notes: in vivo
setup_conditions: mouse, iv
Counter-ions that a name gives are not always drawn.
recorded_endpoint: LD50 (mg/kg)
Give just the number in mg/kg; leave the unit off.

Prompt: Fill blank: measured LD50 of the compound CCN(CC)CCN1C(=O)c2ccccc2C1=Cc1ccc(OC)cc1 [AL 12, hydrochloride] is ____.
Completion: 13.5
